# Test system: TERT
# assay_text: TERT enzyme (telomerase activation) assay in normal melanocyte HFB4 cells
# Type: cell-based, human
# particulars: 24 h, 1 μM, control = 1
quantity: Relative Increase (TERT vs untreated HFB4 control)
Reply: number alone, nothing else.

Example entries and their recorded answers appear below.
compound	result
COc1cc([C@H]2OC[C@H]3[C@@H]2CO[C@@H]3c2cc(OC)c3c(c2)[C@H](CO)[C@@H](c2ccc(O[C@@H]4O[C@H](CO)[C@@H](O)[C@H](O)[C@H]4O)c(OC)c2)O3)ccc1O [Compound 1, anisacanthin]	1.64
COc1cc([C@H]2OC[C@H]3[C@@H]2CO[C@H]3c2ccc(O)c(OC)c2)ccc1O (relative stereo) [Compound 3, epipinoresinol]	1.18
COc1cc([C@H]2OC[C@H]3[C@@H]2CO[C@@H]3c2ccc(O[C@@H]3O[C@H](CO)[C@@H](O)[C@H](O)[C@H]3O)c(OC)c2)ccc1O [Compound 5, pinoresinol 4-O-β-D-glucoside]	1.66

Request: # get_value(readout= Relative Increase (TERT vs untreated HFB4 control), system= TERT) for COc1cc(/C=C/C(=O)CC(=O)/C=C/c2ccc(O)c(OC)c2)ccc1O [Curcumin, curcumin, reference compound]
Result: 1.62

Request: # get_value(readout= Relative Increase (TERT vs untreated HFB4 control), system= TERT) for COc1cc([C@H]2OC[C@H]3[C@@H]2CO[C@@H]3c2ccc(O)c(OC)c2)ccc1O (relative stereo) [Compound 2, pinoresinol]
Result: 1.28

###

# system_tested: AChE (Electrophorus electricus)
# Construct: purchased
# assay_text: biochemical
# particulars: read-out: % Inhibition of AChE
quantity: inhibition at 0.1 µM (%)
# unit: % | format: bare number

molecule	inhibition at 0.1 µM [%]
COc1cc([C@H]2OC[C@H]3[C@@H]2CO[C@@H]3c2ccc(O)c(OC)c2)ccc1O (relative stereo)	41
COc1cc([C@H]2OC[C@H]3[C@@H]2CO[C@@H]3c2cc(OC)c3c(c2)[C@H](CO)[C@@H](c2ccc(O[C@@H]4O[C@H](CO)[C@@H](O)[C@H](O)[C@H]4O)c(OC)c2)O3)ccc1O	61
COc1cc([C@H]2OC[C@H]3[C@@H]2CO[C@@H]3c2ccc(O[C@@H]3O[C@H](CO)[C@@H](O)[C@H](O)[C@H]3O)c(OC)c2)ccc1O [Compound 5, pinoresinol 4-O-β-D-glucoside]	59

Request: I'd like to know its inhibition at 0.1 µM. The molecule in question is COc1cc([C@H]2OC[C@H]3[C@@H]2CO[C@H]3c2ccc(O)c(OC)c2)ccc1O (relative stereo) [Compound 3, epipinoresinol]
Result: 44

###

In this section we review reported inhibition at 0.01 µM values for a set of molecules.
# system_tested: AChE (Electrophorus electricus, UniProt O42275)
# Construct: purchased
# Sequence (O42275 24-633): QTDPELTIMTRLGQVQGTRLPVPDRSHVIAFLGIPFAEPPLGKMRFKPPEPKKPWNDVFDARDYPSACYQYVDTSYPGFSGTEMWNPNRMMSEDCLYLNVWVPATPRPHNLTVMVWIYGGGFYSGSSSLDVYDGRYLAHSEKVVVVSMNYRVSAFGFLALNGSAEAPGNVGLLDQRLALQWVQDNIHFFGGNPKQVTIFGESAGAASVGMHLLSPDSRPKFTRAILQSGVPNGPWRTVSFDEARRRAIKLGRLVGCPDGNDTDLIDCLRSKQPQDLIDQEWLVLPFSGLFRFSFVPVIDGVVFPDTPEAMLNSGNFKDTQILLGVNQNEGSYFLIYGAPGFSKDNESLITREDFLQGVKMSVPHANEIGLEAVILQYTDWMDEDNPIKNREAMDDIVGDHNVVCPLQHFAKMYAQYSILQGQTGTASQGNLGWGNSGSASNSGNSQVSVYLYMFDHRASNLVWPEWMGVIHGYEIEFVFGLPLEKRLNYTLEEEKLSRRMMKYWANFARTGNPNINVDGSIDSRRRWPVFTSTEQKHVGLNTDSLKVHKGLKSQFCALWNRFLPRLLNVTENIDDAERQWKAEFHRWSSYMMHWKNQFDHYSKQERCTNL
# assay_text: biochemical
# particulars: read-out: % Inhibition of AChE
# unit: % | format: bare number

Example entries and their recorded answers appear below.
molecule	system_tested	inhibition at 0.01 µM [%]
COc1cc([C@H]2OC[C@H]3[C@@H]2CO[C@@H]3c2cc(OC)c3c(c2)[C@H](CO)[C@@H](c2ccc(O[C@@H]4O[C@H](CO)[C@@H](O)[C@H](O)[C@H]4O)c(OC)c2)O3)ccc1O	AChE (Electrophorus electricus, UniProt O42275)	24
COc1cc([C@H]2OC[C@H]3[C@@H]2CO[C@@H]3c2ccc(O)c(OC)c2)ccc1O (relative stereo)	AChE (Electrophorus electricus, UniProt O42275)	26

Request: I'd like to know its inhibition at 0.01 µM. The molecule in question is COc1cc([C@H]2OC[C@H]3[C@@H]2CO[C@H]3c2ccc(O)c(OC)c2)ccc1O (relative stereo) [Compound 3, epipinoresinol]
Result: 23

Request: I'd like to know its inhibition at 0.01 µM. The molecule in question is COc1cc([C@H]2OC[C@H]3[C@@H]2CO[C@@H]3c2ccc(O[C@@H]3O[C@H](CO)[C@@H](O)[C@H](O)[C@H]3O)c(OC)c2)ccc1O [Compound 5, pinoresinol 4-O-β-D-glucoside]
Result: 28
